Origin of values: paper PMC4074165

- TESTED SYSTEM: GST-HuR (UniProt Q15717 1-326)
- Sequence (Q15717 whole entry): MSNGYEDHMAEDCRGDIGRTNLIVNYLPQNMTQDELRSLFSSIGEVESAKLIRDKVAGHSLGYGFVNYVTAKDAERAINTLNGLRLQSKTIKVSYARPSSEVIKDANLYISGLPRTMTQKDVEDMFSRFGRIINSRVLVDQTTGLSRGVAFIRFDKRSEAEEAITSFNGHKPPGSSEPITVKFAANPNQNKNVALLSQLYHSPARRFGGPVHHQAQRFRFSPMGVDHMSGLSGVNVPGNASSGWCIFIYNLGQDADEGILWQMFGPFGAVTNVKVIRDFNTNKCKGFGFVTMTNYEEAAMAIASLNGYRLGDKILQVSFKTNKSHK
- ASSAY DETAILS: EMSA
METRIC: binding result

Please give measured binding result of the following entry: P2-3 (ssRNA) RNA: GGGAAAUGGUAGGGAGACAAAUAUACAUGUGAAAUAAACUCAGUAUUUUAAUAAAGU no binding

Please give measured binding result of the following entry: P1-3 (ssRNA) RNA: GGGUACUGUGUUUGAUAAAUGUUGUCCAGGUUCACUUGCCAAGAAUGUGUUGUCUAAAAUG no binding

Please give measured binding result of the following entry: P2-1 (ssRNA) RNA: GGGCCUGUUUAGUUUUCAAGGAUGGAACUCCACCCUUUACUUGGUUUUAAGU no binding
